Target: CDK5/p25 (Homo sapiens (Human), UniProt Q00535)
Sequence (Q00535 whole entry, species assumed): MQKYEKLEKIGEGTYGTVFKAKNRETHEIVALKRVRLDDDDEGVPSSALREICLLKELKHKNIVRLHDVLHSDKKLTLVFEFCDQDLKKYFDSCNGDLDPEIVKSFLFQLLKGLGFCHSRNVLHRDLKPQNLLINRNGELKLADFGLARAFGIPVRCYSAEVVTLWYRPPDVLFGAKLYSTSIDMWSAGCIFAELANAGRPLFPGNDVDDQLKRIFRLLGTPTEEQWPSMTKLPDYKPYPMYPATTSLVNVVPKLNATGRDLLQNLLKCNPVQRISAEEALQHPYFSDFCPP
Sequence (Q15078 99-307 partner, species assumed): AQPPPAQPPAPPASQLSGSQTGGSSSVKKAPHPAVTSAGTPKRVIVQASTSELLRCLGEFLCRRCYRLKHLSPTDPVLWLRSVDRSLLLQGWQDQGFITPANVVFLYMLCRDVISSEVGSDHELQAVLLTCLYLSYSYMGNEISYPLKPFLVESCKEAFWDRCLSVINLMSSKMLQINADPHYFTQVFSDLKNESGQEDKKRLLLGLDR
ADP Glo Assay GSK3β vs CDK5 fold selectivity values for the molecules below.
Give your result in X as a bare value.

[ask] For the molecule Cc1[nH]nc2c1C(c1cccc3nonc13)C1=C(CC(C)(C)CC1=O)N2 (stereo not shown) , give its reported ADP Glo Assay GSK3β vs CDK5 fold selectivity.
[reply] 51

[ask] For the molecule CC1(C)CC(=O)C2=C(C1)Nc1n[nH]c(C(F)(F)F)c1C2c1ccc(F)cc1C(F)(F)F (stereo not shown) , give its reported ADP Glo Assay GSK3β vs CDK5 fold selectivity.
[reply] 130

[ask] For the molecule CCc1[nH]nc2c1C(c1ccccc1OC)C1=C(CC(C)(C)CC1=O)N2 (stereo not shown) , give its reported ADP Glo Assay GSK3β vs CDK5 fold selectivity.
[reply] 35

[ask] For the molecule COc1ccccc1C1C2=C(CCCC2=O)Nc2n[nH]c(C)c21 (stereo not shown) , give its reported ADP Glo Assay GSK3β vs CDK5 fold selectivity.
[reply] 6
